Hello, the source for this data is patent US10301272B2, in case you need it.

- Tested On: RORγ ligand binding domain (LBD) (Homo sapiens (Human))
- Sequence (P51449 269-508): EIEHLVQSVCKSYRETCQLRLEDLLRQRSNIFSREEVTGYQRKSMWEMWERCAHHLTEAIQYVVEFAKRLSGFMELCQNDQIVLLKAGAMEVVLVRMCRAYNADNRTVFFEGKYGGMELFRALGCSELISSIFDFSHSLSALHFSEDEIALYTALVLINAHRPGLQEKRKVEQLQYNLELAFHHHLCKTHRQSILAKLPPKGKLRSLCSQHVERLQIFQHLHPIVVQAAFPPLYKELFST
- Assay Explanation: TR-FRET Activity Assay (ligand sensing assay, LANCE)
- Measurement Context: TR-FRET, interaction of RORγ-LBD with coactivator peptide
Each entry below carries its recorded pIC50 (FRET).

# annotated cases, reported pIC50 (FRET) shown
> print(dat)
                            substance.smiles  measured.result
 1  CC(C)(C)NS(=O)(=O)c1ccc(-c2sc(C(=O)N3CC4CC(C3)O4)nc2CC2CCCCC2)c(Cl)c1Cl      7.4/7.8/8.0
 2  CC(C)(C)c1cc(-c2nc(C(N)=O)sc2CC2CCCCC2)cc(C(C)(C)C)c1      6.5/5.8/5.8
 3  C[C@H](NC(=O)c1cc(-c2sc(C(=O)NCC(C)(C)O)nc2CC2CCCCC2)cc(C2(C)CC2)c1)C(F)(F)F      7.0/8.2/8.3
 4  COCC(C)(C)NS(=O)(=O)c1ccc(-c2sc(C(=O)N3CC4(CCS(=O)(=O)CC4)C3)nc2CC2CCCCC2)c2ccccc12      6.5/7.4/7.4
 5  CC(C)(CO)NS(=O)(=O)c1ccc(-c2sc(C(=O)N3CC4(CCS(=O)(=O)CC4)C3)nc2CC2CCCCC2)c2ccccc12      6.2/7.1/7.1
 6  CC(C)(O)c1cc(-c2sc(C(=O)N[C@H]3C[C@H](C(=O)O)C3)nc2CC2CCCCC2)cc(C2(C)CC2)c1      6.5/7.1/7.1
 7  CC(C)(C)NS(=O)(=O)c1ccc(-c2sc(C(=O)N3CC4(CSC4)C3)nc2CC2CCCCC2)c(Cl)c1Cl      6.9/8.0/8.2
 8  CNC(=O)C(C)(C)CCNC(=O)c1nc(CC2CCCCC2)c(-c2ccc(S(=O)(=O)NC(C)(C)C)c(C(F)(F)F)c2)s1      6.2/7.0/7.1
 9  CC(C)(C)NS(=O)(=O)c1ccc(-c2sc(C(=O)N[C@H]3C[C@H](C(=O)O)C3)nc2CC2CCCCC2)c(C(F)F)c1Cl      6.5/8.5/8.5
10  CN(C(=O)c1nc(CC2CCCCC2)c(-c2ccc(S(=O)(=O)NC(C)(C)C)c3ccccc23)o1)C1CCOCC1      6.6/7.1/7.3

// compound `CC(C)(C)NS(=O)(=O)c1ccc(-c2sc(C(=O)N[C@H]3C[C@H](C(=O)O)C3)nc2CC2CCCCC2)c(Cl)c1C(F)(F)F` , assay RORγ ligand binding domain (LBD) (Homo sapiens (Human)), pIC50 (FRET) value: 6.2/8.0/8.2

// compound `CC(C)(C)NS(=O)(=O)c1ccc(-c2oc(C(=O)N3CC4(CCOCC4)C3)nc2CC2CCCCC2)c2ccccc12` , assay RORγ ligand binding domain (LBD) (Homo sapiens (Human)), pIC50 (FRET) value: 6.4/7.2/7.4

// compound `CC(C)(C)NS(=O)(=O)c1ccc(-c2sc(C(=O)NC3CCS(=O)(=O)CC3)nc2CC2CCCCC2)c(Cl)c1Cl` , assay RORγ ligand binding domain (LBD) (Homo sapiens (Human)), pIC50 (FRET) value: 7.0/8.7/8.7

// compound `CC(C)(C)c1cc(-c2sc(C(=O)N[C@H]3C[C@H](C(=O)O)C3)nc2CC2CCCCC2)cc(C(C)(F)F)c1` , assay RORγ ligand binding domain (LBD) (Homo sapiens (Human)), pIC50 (FRET) value: 6.4/7.4/7.4
